Test system: RPMI-8226 leukemia
experiment notes: NCI-60 one-dose screen, 48 h
conditions: 10 µM unless noted
About 83,000 compounds went through this panel and 20% of them were active in at least one assay; those are over-represented in the sample as a whole. Calls of active or inactive are those of the source. Rule for the calls: active = growth percent below 10; inactive = the rest.
Write down one outcome, taken from active, inactive

(Q) Tell me the assay call for Cn1ccnc1C(=O)/C=C/c1ccc(CC(=O)NC2CCCCC2)cc1 please.
(A) inactive

(Q) Tell me the assay call for CNC(=O)c1cc(Cn2nc(C)c(NC(=O)Nc3ccc(Cl)c(C(F)(F)F)c3)c2C)ccn1 please.
(A) inactive

(Q) Tell me the assay call for C[C@H](c1nc2ccc(N)cc2[nH]1)[C@H]1CC[C@H]2[C@@H]3CCC4=CC(=O)CC[C@]4(C)[C@H]3CC[C@]12C please.
(A) inactive

(Q) Tell me the assay call for Nc1n[nH]c2cccc(C#Cc3cccc(C(=O)Nc4cc(CN5CCOCC5)cc(C(F)(F)F)c4)c3)c12 please.
(A) inactive

(Q) Tell me the assay call for Cn1nc(CC#N)c2c(=N)n(N)cnc21 please.
(A) inactive

(Q) Tell me the assay call for O=C1c2ccc3c4c(ccc(c24)C(=O)N1CCCNCc1ccccc1Cl)C(=O)N(CCCNCc1ccccc1Cl)C3=O please.
(A) active

More entries:
(Q) Tell me the assay call for C=CCN1C(=O)/C(=C/C(=O)OC)S/C1=N\NC(=O)c1cc2ccc1/C=C\c1ccc(cc1)/C=C\2 please.
(A) active

(Q) Tell me the assay call for COc1ccc2c(c1)C(=O)CC(c1ccccc1OC)O2 (stereo unspecified) please.
(A) inactive

(Q) Tell me the assay call for CCCCCN1C=C/C(=C\C(=O)N(C)c2ccccc2Br)c2ccccc21 please.
(A) inactive

(Q) Tell me the assay call for COc1ccc(-c2cnc3c(-c4cccc5ncccc45)cnn3c2)cc1 please.
(A) inactive

(Q) Tell me the assay call for O=C(/C=C(/C=C/c1csc2ccccc12)OB(F)F)/C=C/c1csc2ccccc12 please.
(A) active

(Q) Tell me the assay call for COc1ccc2[nH]c(=O)c(CN3CCN(c4nccc(-c5ccc(Cl)cc5)n4)CC3)cc2c1 please.
(A) inactive

(Q) Tell me the assay call for CCOC(=O)c1nc2c3ccccc3ccn2c1C(=O)OCC please.
(A) inactive

(Q) Tell me the assay call for Cn1cc(CC2CC(=O)N(c3ccccc3)C2=O)sc1=NC(=O)c1ccccc1 (stereo unspecified) please.
(A) inactive

(Q) Tell me the assay call for Cc1nc2sccn2c1-c1nc2sccn2c1/C=C1/C(=O)Nc2ccccc21 please.
(A) inactive

(Q) Tell me the assay call for CCN(CC)CC[n+]1cc2cc(OC)c(OC)cc2c2ccc3cc4c(cc3c21)OCO4 please.
(A) active

(Q) Tell me the assay call for COc1ccc(Cc2cnc(NC(=O)c3ccc4c(c3)OCCO4)s2)cc1 please.
(A) inactive

(Q) Tell me the assay call for O=Cc1cc2ccccc2nc1Oc1ccc(C(F)(F)F)cc1 please.
(A) inactive

(Q) Tell me the assay call for CCc1c(Cl)nc(N)nc1Nc1ccc(C)c(C)c1 please.
(A) inactive

(Q) Tell me the assay call for N#Cc1c(NC(=O)NCc2ccccc2)sc2c1CCCC2 please.
(A) inactive

(Q) Tell me the assay call for COc1ccc(C(=O)c2cc(C)c(OC)c(C)c2)c(OC)c1OC(=O)C(Cl)Cl please.
(A) inactive

Reference for the values: PubChem BioAssay (NCI)
